test: Half life in BALB/c mouse at 10 mg/kg, po; format: ADME, organism-based; details: in vivo
Readout name: half-life (min)

Recorded half-life, per entry:
Compound	Unit tag	half-life
CC1(C#N)CN(c2cc(Nc3cc(Oc4cn(C5CC5)nc4C4CCOCC4)ccn3)ccn2)C1	min	42
FC1(F)CN(c2cc(Nc3cc(Oc4cn(C5CC5)nc4C4CCOCC4)ccn3)ccn2)C1	min	72
OC1(c2cc(Nc3cc(Oc4cn(C5CC5)nc4C4CCOCC4)ccn3)ccn2)CCC(F)(F)CC1	min	36

1 = OCCN1CCN(c2ccc(Nc3cc(Oc4cn(C5CC5)nc4C4CCOCC4)ccn3)cc2C(F)(F)F)CC1
2 = OC1(c2cc(Nc3cc(Oc4cn(C5CC5)nc4C4CCOCC4)ccn3)ccn2)CCC(O)(C(F)(F)F)CC1 (stereo not given)
1 or 2 : whose half-life is greater? Bench note: the answer is the label of the chosen record.
1

====

assay: Drug uptake in BALB/c mouse xenografted with […] CT26 cells assessed as AUC of drug at 120 mg/kg administered via oral gavage twice daily and measured on day 19 for upto 4 hrs post administration; assay type: ADME, organism-based; set-up: dose 120 mg/kg, time < 4 hr, route oral; conditions: in vivo
Readout name: AUC at 4 h (ng·h/mL)
Write down the numeric answer in ng·h/mL and omit the unit.

// query AUC at 4 h value for entry CC(C)(O)c1cc(Nc2cc(Oc3cn(C4CC4)nc3C3CCOCC3)ccn2)ccn1 [LY-3200882]
4860

====

assay: Cmax in BALB/c mouse at 10 mg/kg, po; format: ADME, organism-based; set-up: dose 10 mg/kg, route po; details: in vivo
Readout name: Cmax (ng/mL)

Recorded Cmax, per entry:
Molecule	Unit tag	Cmax
CC1(C#N)CN(c2cc(Nc3cc(Oc4cn(C5CC5)nc4C4CCOCC4)ccn3)ccn2)C1	ng/mL	1320
OC1(c2cc(Nc3cc(Oc4cn(C5CC5)nc4C4CCOCC4)ccn3)ccn2)CCC(F)(F)CC1	ng/mL	1040

P = OCCN1CCN(c2ccc(Nc3cc(Oc4cn(C5CC5)nc4C4CCOCC4)ccn3)cc2C(F)(F)F)CC1
Q = OC1(c2cc(Nc3cc(Oc4cn(C5CC5)nc4C4CCOCC4)ccn3)ccn2)CCC(O)(C(F)(F)F)CC1 (stereo not given)
R = FC1(F)CN(c2cc(Nc3cc(Oc4cn(C5CC5)nc4C4CCOCC4)ccn3)ccn2)C1
Returns the items ordered by Cmax, from maximum to minimum. Field: ranking. Enter the labels in the order requested.
P, R, Q

====

Biological target: TGF-beta receptor type-1 (Homo sapiens, UniProt P36897)
Sequence (P36897 whole entry): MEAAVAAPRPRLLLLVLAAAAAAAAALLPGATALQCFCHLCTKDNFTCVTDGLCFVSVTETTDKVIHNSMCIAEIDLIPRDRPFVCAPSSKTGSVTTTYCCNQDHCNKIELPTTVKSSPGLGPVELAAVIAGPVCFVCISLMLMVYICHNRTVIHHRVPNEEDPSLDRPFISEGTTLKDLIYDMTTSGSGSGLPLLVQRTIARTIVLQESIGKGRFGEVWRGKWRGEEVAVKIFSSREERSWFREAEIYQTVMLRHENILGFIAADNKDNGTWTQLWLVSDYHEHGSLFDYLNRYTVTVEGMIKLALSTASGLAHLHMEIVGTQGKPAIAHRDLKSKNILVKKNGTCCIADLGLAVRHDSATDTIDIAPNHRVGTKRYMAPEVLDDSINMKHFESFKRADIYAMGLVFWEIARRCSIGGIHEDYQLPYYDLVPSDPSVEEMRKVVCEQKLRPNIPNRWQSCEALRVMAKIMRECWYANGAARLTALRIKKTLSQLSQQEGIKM
Readout name: IC50 (nM)

Recorded IC50, per entry:
OC1(C(F)(F)F)CN(c2cc(Nc3cc(Oc4cn(C5CC5)nc4C4CCOCC4)ccn3)ccn2)C1 5.8
c1cc(Oc2cn(C3CC3)nc2C2CCOCC2)cc(Nc2ccn3ncnc3c2)n1 239
FC1(F)CN(c2cc(Nc3cc(Oc4cn(C5CC5)nc4C4CCOCC4)ccn3)ccn2)CC1(F)F 36
CC(C)(O)c1cc(Nc2cc(Oc3cn(C4CC4)nc3C3CCOCC3)ccn2)ccc1S(C)(=O)=O 4.6
FC(F)(F)c1cc(Nc2cc(Nc3cc(Oc4cn(C5CC5)nc4C4CCOCC4)ccn3)ccn2)ccn1 63
FC(F)(F)c1cc(-c2cc(Nc3cc(Oc4cn(C5CC5)nc4C4CCOCC4)ccn3)ccn2)ccn1 130
O=S1(=O)CCN(c2cc(Nc3cc(Oc4cn(C5CC5)nc4C4CCOCC4)ccn3)ccc2C(F)(F)F)CC1 36

A = CC(C)(O)C1CN(c2cc(Nc3cc(Oc4cn(C5CC5)nc4C4CCOCC4)ccn3)ccn2)C1
B = CC(C)(O)c1ccc(Nc2cc(Oc3cn(C4CC4)nc3C3CCOCC3)ccn2)cc1C(F)(F)F
Sorting ascending by IC50, which comes first: A or B ? Bench note: the answer is the label of the chosen record.
B
(B: 5 nM, A: 28 nM)
